B1: TPR t1 (parent)
chain: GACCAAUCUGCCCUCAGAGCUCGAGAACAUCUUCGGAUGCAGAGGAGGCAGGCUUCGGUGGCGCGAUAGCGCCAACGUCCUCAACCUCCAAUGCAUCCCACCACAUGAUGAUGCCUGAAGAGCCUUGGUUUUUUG

variants of: B1; test: polymerase ribozyme fitness, log enrichment relative to wild type (log ratio); higher = more active; in vitro selection for triplet polymerase activity
Threshold rule: polymerase ribozyme fitness (log ratio) greater than or equal to -2 is fulfilled; below that, not fulfilled.

| mutation-string | assigned-class |
| --- | --- |
| G58A U96C | fulfilled |
| C73U U132C | fulfilled |
| G19U A43U G122A C124A | not fulfilled |
| C3U C70A C86U A118U | fulfilled |
| G17U C115G | fulfilled |
| C12U G71A C94U | fulfilled |
| C56G A68G C73A A111G G135U | not fulfilled |
| C12A C97A U131A | not fulfilled |

-- ask Dear colleague, could you confirm whether C4U C72A C85U C102U A121G U133A has polymerase ribozyme fitness (log ratio) at or above -2?
-- reply fulfilled

-- ask Dear colleague, could you confirm whether C73U G120A has polymerase ribozyme fitness (log ratio) at or above -2?
-- reply fulfilled

-- ask Dear colleague, could you confirm whether G69U G120A has polymerase ribozyme fitness (log ratio) at or above -2?
-- reply fulfilled

-- ask Dear colleague, could you confirm whether C4G C15A A16U C53A C72U U78C C115U has polymerase ribozyme fitness (log ratio) at or above -2?
-- reply not fulfilled

-- ask Dear colleague, could you confirm whether A5U G71C has polymerase ribozyme fitness (log ratio) at or above -2?
-- reply not fulfilled

-- ask Dear colleague, could you confirm whether G45A G107A A121C has polymerase ribozyme fitness (log ratio) at or above -2?
-- reply not fulfilled

-- ask Dear colleague, could you confirm whether C12G G35A G48U G57U C80U has polymerase ribozyme fitness (log ratio) at or above -2?
-- reply not fulfilled

-- ask Dear colleague, could you confirm whether C28U U129A has polymerase ribozyme fitness (log ratio) at or above -2?
-- reply not fulfilled

-- ask Dear colleague, could you confirm whether A37U C72U A75U U78G C124A has polymerase ribozyme fitness (log ratio) at or above -2?
-- reply fulfilled

-- ask Dear colleague, could you confirm whether C11U G60A has polymerase ribozyme fitness (log ratio) at or above -2?
-- reply fulfilled
